experiment: in vivo; parameters: species or system Male SD rats; conditions: male, SD, rat, in vivo, ip, 100 mg/kg, D-Trp i.p. 100 mg·kg^−1; Ket-treated rat; without pretreatment of MPC; read-out: t1/2 of plasma D-Trp
Measured quantity: half-life

Recorded result, N[C@H](Cc1c[nH]c2ccccc12)C(=O)O , half-life: 43.7 min

* * *

test: in vivo; set-up: species or system Male SD rats; settings: male, SD, rat, in vivo, ip, 100 mg/kg, D-Trp i.p. 100 mg·kg^−1; control rat; without pretreatment of MPC; read-out: Ke of plasma D-Trp (converted)
Measured quantity: k el (s⁻¹)
Supply the numeric figure in s⁻¹, leaving out any unit text.

Recorded result, N[C@H](Cc1c[nH]c2ccccc12)C(=O)O , k el: 0.000236

* * *

test: in vivo; design: species or system Male SD rats; settings: male, SD, rat, in vivo, ip, 100 mg/kg, D-Trp i.p. 100 mg·kg^−1; control rat; with pretreatment of MPC (50 mg·kg^−1); read-out: AUC of plasma D-Trp
Measured quantity: AUC (µM·h)
Supply the numeric figure in µM·h, leaving out any unit text.

Recorded result, N[C@H](Cc1c[nH]c2ccccc12)C(=O)O [D-Trp, D-tryptophan] , AUC: 2080

* * *

test: in vivo; parameters: species or system Male SD rats; conditions: male, SD, rat, in vivo, ip, 100 mg/kg, D-Trp i.p. 100 mg·kg^−1; control rat; with pretreatment of MPC (50 mg·kg^−1); read-out: t1/2 of plasma D-Trp
Measured quantity: half-life (min)
Supply the numeric figure in min, leaving out any unit text.

Recorded result, N[C@H](Cc1c[nH]c2ccccc12)C(=O)O , half-life: 54

* * *

test: in vivo; set-up: species or system Male SD rats; conditions: male, SD, rat, in vivo, ip, 100 mg/kg, D-Trp i.p. 100 mg·kg^−1; control rat; without pretreatment of MPC; read-out: AUC of plasma D-Trp
Measured quantity: AUC (µM·h)
Supply the numeric figure in µM·h, leaving out any unit text.

Recorded result, N[C@H](Cc1c[nH]c2ccccc12)C(=O)O , AUC: 693

* * *

assay: in vivo; design: species or system Male SD rats; conditions: male, SD, rat, in vivo, ip, 100 mg/kg, D-Trp i.p. 100 mg·kg^−1; Ket-treated rat; with pretreatment of MPC (50 mg·kg^−1); read-out: t1/2 of plasma D-Trp
Measured quantity: half-life (h)
Supply the numeric figure in h, leaving out any unit text.

Recorded result, N[C@H](Cc1c[nH]c2ccccc12)C(=O)O [D-Trp, D-tryptophan] , half-life: 1

* * *

test: in vivo; design: species or system Male SD rats; conditions: male, SD, rat, in vivo, ip, 100 mg/kg, D-Trp i.p. 100 mg·kg^−1; Ket-treated rat; without pretreatment of MPC; read-out: AUC of plasma D-Trp
Measured quantity: AUC (µM·h)
Supply the numeric figure in µM·h, leaving out any unit text.

Recorded result, N[C@H](Cc1c[nH]c2ccccc12)C(=O)O , AUC: 719

* * *

assay: in vivo; design: species or system Male SD rats; conditions: male, SD, rat, in vivo, ip, 100 mg/kg, D-Trp i.p. 100 mg·kg^−1; Ket-treated rat; with pretreatment of MPC (50 mg·kg^−1); read-out: AUC of plasma D-Trp
Measured quantity: AUC
Just so you know, I need the unit written after the number.

Recorded result, N[C@H](Cc1c[nH]c2ccccc12)C(=O)O [D-Trp, D-tryptophan] , AUC: 983 µM·h

* * *

test: in vivo; parameters: species or system Male SD rats; settings: male, SD, rat, in vivo, ip, 100 mg/kg, D-Trp i.p. 100 mg·kg^−1; control rat; without pretreatment of MPC; read-out: Cmax of plasma D-Trp
Measured quantity: Cmax (µM)
Supply the numeric figure in µM, leaving out any unit text.

Recorded result, N[C@H](Cc1c[nH]c2ccccc12)C(=O)O , Cmax: 567

* * *

experiment: in vivo; parameters: species or system Male SD rats; settings: male, SD, rat, in vivo, ip, 100 mg/kg, D-Trp i.p. 100 mg·kg^−1; Ket-treated rat; without pretreatment of MPC; read-out: Ke of plasma D-Trp (converted)
Measured quantity: k el (s⁻¹)
Supply the numeric figure in s⁻¹, leaving out any unit text.

Recorded result, N[C@H](Cc1c[nH]c2ccccc12)C(=O)O [D-Trp, D-tryptophan] , k el: 0.000269

* * *

experiment: in vivo; design: species or system Male SD rats; conditions: male, SD, rat, in vivo, ip, 100 mg/kg, D-Trp i.p. 100 mg·kg^−1; control rat; with pretreatment of MPC (50 mg·kg^−1); read-out: Ke of plasma D-Trp (converted)
Measured quantity: k el (s⁻¹)
Supply the numeric figure in s⁻¹, leaving out any unit text.

Recorded result, N[C@H](Cc1c[nH]c2ccccc12)C(=O)O , k el: 0.000214

* * *

test: in vivo; parameters: species or system Male SD rats; settings: male, SD, rat, in vivo, ip, 100 mg/kg, D-Trp i.p. 100 mg·kg^−1; control rat; without pretreatment of MPC; read-out: t1/2 of plasma D-Trp
Measured quantity: half-life (min)
Supply the numeric figure in min, leaving out any unit text.

Recorded result, N[C@H](Cc1c[nH]c2ccccc12)C(=O)O , half-life: 49.1
